Test system: A549
assayInfo: MTS assay, A549
testConditions: read-out: mean IC50; A549; mean of independent MTS assays
pIC50: −log10 of the molar value.

smilesText	pIC50
CNC(=O)c1ccccc1Nc1nc(Nc2ccc(N3CCOCC3)cc2OC)ncc1Cl	5.85

---

Test system: NCI-H1395
assayInfo: MTS assay, NCI-H1395
testConditions: read-out: mean IC50; NCI-H1395; mean of independent MTS assays
parameterMeasured: IC50

smilesText	valueMeasured
CNC(=O)c1ccccc1Nc1nc(Nc2ccc(N3CCOCC3)cc2OC)ncc1Cl	480 nM

---

Tested on: NCI-H2228
assayInfo: MTS assay, NCI-H2228
testConditions: read-out: IC50 (μM) (mean ± SD); NCI-H2228, EML4-ALK fusion Variant 3; MTS; TAE226 48 hours, gefitinib 72 hours

smilesText	IC50, µM
CNC(=O)c1ccccc1Nc1nc(Nc2ccc(N3CCOCC3)cc2OC)ncc1Cl	0.28
